Test: Metabolic stability in dog liver microsomes assessed as half life
Type: ADME, Canis lupus familiaris, Microsome
MEASURED METRIC: half-life

Query: What value of half-life has been reported for the following molecule? COc1cc2c(cc1OCC(O)CO)Cc1c-2n[nH]c1NCc1c(Cl)cccc1Cl (stereo unspecified)
Response: > 1 h

====

Assay: Clearance in rat
Assay type: ADME, organism-based
Details: in vivo
MEASURED METRIC: clearance (mL/min/kg)
Unit mL/min/kg implied. Number only.

Query: What value of clearance has been reported for the following compound? COc1cc2c(cc1OCC(O)CO)Cc1c-2n[nH]c1NCc1c(Cl)cccc1Cl (stereo unspecified)
Response: 31.7
